Provenance of the data: the supplement of paper PMC9112550

test system: Escherichia coli TOP10; assay: shrunken log2 fold change of peptide-encoding DNA abundance (4.5 h post-induction vs induction); higher = less antimicrobial activity (less host growth inhibition); conditions: time post-induction: 4.5 h; library: site-saturation at positions 5, 18, 19, 20
Please go through the items and note down their shrunken log2 fold change.
Lab note: jot down the number only; don't add units.

Quick one: shrunken log2 fold change of RRIRLRPPRLPRPRPRPLPHPRP ?
-0.309

Consider next the sequence RRIRWRPPRLPRPRPRPLCRPRP in the same way.
0.17

Try the sequence RRIRGRPPRLPRPRPRPMKCPRP
0.0384

And the next one, RRIRHRPPRLPRPRPRPSSDPRP ?
-0.529

And then RRIRPRPPRLPRPRPRPYRDPRP , what is it?
0.0239

Note, next up: RRIRERPPRLPRPRPRPMSDPRP
-0.235

Also need RRIRHRPPRLPRPRPRPAGCPRP , thanks.
0.242

What do you get for RRIRIRPPRLPRPRPRPYMNPRP ?
-0.712

Cool, now RRIRRRPPRLPRPRPRPPEVPRP
0.821

Same again, this time with RRIRLRPPRLPRPRPRPGNPPRP
0.0749

Follow-up item: RRIRVRPPRLPRPRPRPNLCPRP
-0.292

Next: RRIRRRPPRLPRPRPRPPMFPRP
0.26

Continue with RRIRMRPPRLPRPRPRPHAPPRP
0.469

Follow-up item: RRIRARPPRLPRPRPRPHDMPRP
0.245

Another sequence to look at: RRIRMRPPRLPRPRPRPPRHPRP
0.955

Query RRIRERPPRLPRPRPRPVVCPRP next
0.0991

Input RRIRIRPPRLPRPRPRPQFHPRP
-1.12

Note, next up: RRIRFRPPRLPRPRPRPGRMPRP
0.0574

Quick one: RRIRIRPPRLPRPRPRPYGSPRP
-0.126

Would you kindly repeat that for RRIRSRPPRLPRPRPRPWMAPRP ?
0.0303

Do the same for RRIRKRPPRLPRPRPRPSCYPRP please
-0.0656

---

system: Escherichia coli TOP10; test: shrunken log2 fold change of peptide-encoding DNA abundance (4.5 h post-induction vs induction); higher = less antimicrobial activity (less host growth inhibition); conditions: time post-induction: 4.5 h; library: site-saturation at positions 5, 18, 19, 20
ATTRIBUTE MEASURED: shrunken log2 fold change
Give the value as a plain number.

Entry under review: RRIRNRPPRLPRPRPRPELLPRP . Reported shrunken log2 fold change?
0.0274

Please give the result for RRIRWRPPRLPRPRPRPWKEPRP too.
0.162

Next sequence: RRIRMRPPRLPRPRPRPDHYPRP
-0.0146

Input RRIRYRPPRLPRPRPRPPETPRP
-0.0226

What about this sequence? RRIRFRPPRLPRPRPRPRSSPRP
0.12

---

system: Escherichia coli TOP10; assay: shrunken log2 fold change of peptide-encoding DNA abundance (4.5 h post-induction vs induction); higher = less antimicrobial activity (less host growth inhibition); conditions: time post-induction: 4.5 h; library: site-saturation at positions 5, 18, 19, 20;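 also: peptides expressed intracellularly from a pBAD plasmid library in pooled LB shake-flask culture, induced with 0.3% L-arabinose, DNA abundance read by NGS, three biological replicates, DESeq2 with apeglm shrinkage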
ATTRIBUTE MEASURED: shrunken log2 fold change
I only need the number, thanks.

If you can, please state the reported shrunken log2 fold change value of RRIRIRPPRLPRPRPRPQEMPRP .
-0.379

Another: RRIRDRPPRLPRPRPRPAKIPRP
-0.00511

Repeat with RRIRTRPPRLPRPRPRPAMNPRP
-0.405

Now give it for RRIRIRPPRLPRPRPRPAYDPRP too.
-0.325

Now the sequence RRIRMRPPRLPRPRPRPHVQPRP
-0.0996

Continue with RRIRNRPPRLPRPRPRPRISPRP
-0.408

Next: RRIRTRPPRLPRPRPRPPAKPRP
1.11

Consider next the sequence RRIRHRPPRLPRPRPRPCMNPRP in the same way.
-0.0607

Cool, now RRIRARPPRLPRPRPRPHLVPRP
0.0104

Another sequence: RRIRFRPPRLPRPRPRPMIYPRP
-0.441

// repeat for RRIRDRPPRLPRPRPRPAPKPRP and report
0.0948

What do we get for RRIRARPPRLPRPRPRPWMKPRP ?
-0.172

Subsequent entry: RRIRLRPPRLPRPRPRPMQIPRP
0.057

Okay, and RRIRHRPPRLPRPRPRPSARPRP ?
-0.223

Would you kindly repeat that for RRIRARPPRLPRPRPRPIYAPRP ?
0.144

And for RRIRFRPPRLPRPRPRPQRPPRP ?
0.203

Param item: RRIRMRPPRLPRPRPRPWMWPRP
-0.0668

Same again, this time with RRIRCRPPRLPRPRPRPYWPPRP
-0.158

Now consider RRIRVRPPRLPRPRPRPWFWPRP .
0.121

How about RRIRPRPPRLPRPRPRPCMFPRP ?
-0.577

Record: RRIRFRPPRLPRPRPRPYFRPRP
-0.134

What do you have for RRIRARPPRLPRPRPRPTHIPRP ?
0.36

Same thing, different sequence: RRIRCRPPRLPRPRPRPAGRPRP
0.373

Further, for RRIRKRPPRLPRPRPRPSYHPRP ?
2.31

Quick one: RRIRFRPPRLPRPRPRPYEEPRP
-0.221
